# experimental system: Fibroblast growth factor receptor 4 (Homo sapiens);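 note: values are mean percent inhibition of FGFR4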
# test parameters: at 0.1 µM
Provide the reported inhibition of each item.
Write the answer as a number in %, unit excluded.

Exercise: Return reported inhibition. Input molecule: "CCn1cc(-c2ccnc3[nH]ccc23)c(-c2cccc(NC(=O)Nc3ccc(OCc4ccccc4)cc3)c2)n1"
Solution: -0.55

Exercise: State, in one line, measured inhibition of "CNC(=O)c1cncc(/C=C/c2ccccc2Cl)c1"
Solution: 1.47

Exercise: Look up inhibition of "COc1ccc(CNC(=O)c2ccc(-c3cc(-c4nnc(C)o4)ccc3C)cc2)cc1" and report it.
Solution: 3.34

Exercise: Give the measured inhibition for "CC(=O)NCc1cccc(C#Cc2cncnc2Nc2ccc(OCc3cccc(F)c3)c(Cl)c2)c1"
Solution: 0.41

Exercise: Give the value of inhibition reported for the following: "CCN1CCC(CC(=O)Nc2n[nH]c3nnc(-c4cccc(F)c4F)cc23)CC1"
Solution: 0.88

Exercise: Answer with reported inhibition of "COc1cc2ncn(-c3cc(OCc4ccccc4C(F)(F)F)c(C(=O)N(C)C)s3)c2cc1OC"
Solution: -1.7

Exercise: Identify the reported inhibition for the following entry. "CCCN1CCC(c2ccc(Nc3nc(Nc4cc(F)ccc4C(N)=O)c4cc[nH]c4n3)c(OC)c2)CC1"
Solution: -5.38

Exercise: Specify inhibition for "CS(=O)(=O)CCNCc1coc(-c2ccc3ncnc(Nc4ccc(OCc5ccccc5)cc4)c3c2)c1" and stop.
Solution: 4.22

Exercise: Return inhibition for the following molecule: "CCn1c(-c2nonc2N)nc2cnc(Oc3cccc(NC(=O)c4ccc(N(C)C)cc4)c3)cc21"
Solution: 1.51

Exercise: Supply measured inhibition of "CCn1c(-c2nonc2N)nc2c(C#CC(C)(C)O)nc(OC[C@H](N)c3ccccc3)cc21" in your reply.
Solution: 3.89

Exercise: Indicate the recorded inhibition value for this molecule: "NS(=O)(=O)c1ccc(Nc2ncc(-c3ccccc3)o2)cc1"
Solution: 2.06

Exercise: Given "CNC(=O)c1cccc(C#Cc2cncnc2Nc2ccc(OCc3cccc(F)c3)c(Cl)c2)c1" , respond with its inhibition.
Solution: 0.5

Exercise: Please give measured inhibition of the following entry: "COc1cc2c(cc1Nc1nc(Nc3ccsc3C(N)=O)c3cc[nH]c3n1)N(C(=O)CN(C)C)CCC2(C)C"
Solution: -6.03

Exercise: Answer with reported inhibition of "CC(C)(CO)CNC(=O)c1ccc2c(c1)/C(=N/Nc1ccc(S(N)(=O)=O)cc1)C(=O)N2"
Solution: 0.38

Exercise: Read off the recorded inhibition for "c1ccc(COc2ccc(Nc3ncnc4ccc(-c5ccco5)cc34)cc2)cc1"
Solution: 3.87

Exercise: Report measured inhibition; entry is "O=C(O[C@H]1CN[C@H](C#Cc2cc3ncnc(Nc4ccc(Cc5ccccc5)cc4)c3s2)C1)N1CCOCC1"
Solution: 4.79

Exercise: Identify measured inhibition associated with "CCOc1ccc2c(-c3ccnc(Nc4cccc(C(F)(F)F)c4)n3)cnn2n1"
Solution: -0.43

====

For each entry below, report its inhibition value.
# experimental system: Mitogen-activated protein kinase 14 (Homo sapiens)
# test parameters: at 0.1 µM
Kindly answer with a numeric value in %, unit omitted.

Exercise: Tell me inhibition of "Fc1ccc(-c2nn3ccccc3c2-c2ccncc2)cc1" when tested on Mitogen-activated protein kinase 14 (Homo sapiens).
Solution: 41.4

Exercise: Provide Mitogen-activated protein kinase 14 (Homo sapiens) inhibition reading for "CN1CCC(n2cnc(-c3ccc(F)cc3)c2-c2ccnc(Nc3ccccc3)n2)CC1" .
Solution: 84.1

Exercise: // output inhibition; input "COC(=O)Nc1nc2ccc(S(=O)(=O)c3ccc(NC(=O)Nc4cc(C(F)(F)F)ccc4F)cc3)cc2[nH]1" ; system Mitogen-activated protein kinase 14 (Homo sapiens)
Solution: 3.23

Exercise: Please report the measured inhibition for "O=S(=O)(CCNCc1ccc(-c2ccc3ncnc(Nc4ccc(OCc5cccc(F)c5)c(Cl)c4)c3c2)o1)c1ccccc1" tested on Mitogen-activated protein kinase 14 (Homo sapiens).
Solution: 16.1

Exercise: Provide the reported inhibition (system: Mitogen-activated protein kinase 14 (Homo sapiens)) for "Clc1ccc(-c2nn3ncccc3c2-c2ccnc(Nc3ccccc3)n2)cc1"
Solution: 46.5

Exercise: State inhibition (Mitogen-activated protein kinase 14 (Homo sapiens)) of "NS(=O)(=O)c1ccc(N/N=C2\C(=O)Nc3ccc4ncccc4c32)cc1" .
Solution: 0.75

Exercise: Report inhibition under test system Mitogen-activated protein kinase 14 (Homo sapiens) for "COc1cc2ncn(-c3cc(OCc4ccccc4C(F)(F)F)c(C(=O)N(C)C)s3)c2cc1OC" .
Solution: 7.43

Exercise: Retrieve inhibition on Mitogen-activated protein kinase 14 (Homo sapiens); query "N#Cc1c(NC(=O)c2ccc(F)cc2)sc2c1CCCC2"
Solution: -0.55

Exercise: Output reported inhibition of the compound "CCOc1ccc2c(-c3ccnc(Nc4cccc(C(F)(F)F)c4)n3)cnn2n1" on Mitogen-activated protein kinase 14 (Homo sapiens).
Solution: 3.75

Exercise: Specify the recorded inhibition for "COC(=O)c1sc(-n2cnc3cc(OC)c(OC)cc32)cc1OCc1ccccc1C(F)(F)F" , system: Mitogen-activated protein kinase 14 (Homo sapiens).
Solution: 2.39

Exercise: Please report the measured inhibition for "CCNC(=O)O[C@H]1CN[C@H](C#Cc2cc3ncnc(Nc4ccc(OCc5cccc(F)c5)c(Cl)c4)c3s2)C1" tested on Mitogen-activated protein kinase 14 (Homo sapiens).
Solution: 1.94

Exercise: Lab note: Mitogen-activated protein kinase 14 (Homo sapiens) assay, enter inhibition for "CCN1CCC(CC(=O)Nc2n[nH]c3nnc(-c4cccc(F)c4F)cc23)CC1" here
Solution: 1.3

Exercise: Give inhibition; test system Mitogen-activated protein kinase 14 (Homo sapiens); compound "CS(=O)(=O)CCNCc1coc(-c2ccc3ncnc(Nc4ccc(OCc5ccccc5)cc4)c3c2)c1"
Solution: 3.52

Exercise: Please respond with reported inhibition (system Mitogen-activated protein kinase 14 (Homo sapiens)) for "CC(C)COC(=O)c1ccc2c(c1)/C(=C/Nc1ccc(S(N)(=O)=O)cc1)C(=O)N2" .
Solution: -0.94

Exercise: Please respond with reported inhibition (system Mitogen-activated protein kinase 14 (Homo sapiens)) for "Nc1nc(-c2ccc(F)cc2)c(-c2ccc3ncccc3n2)s1" .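 Note: values are mean percent inhibition of p38α kinase from the GSK PKIS published kinase inhibitor set screen.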
Solution: 23.6

Exercise: Give inhibition only, for "CCn1c(-c2nonc2N)nc2c(C#CC(C)(C)O)nc(OC[C@H](N)c3ccccc3)cc21" , using Mitogen-activated protein kinase 14 (Homo sapiens) data.
Solution: 4.73

Exercise: Provide inhibition, recorded with Mitogen-activated protein kinase 14 (Homo sapiens), of "COc1cc(N2CCN(C(C)C)CC2)ccc1Nc1nc(Nc2ccc(F)cc2C(N)=O)c2cc[nH]c2n1"
Solution: 4.36

These entries and their values trace back to ChEMBL document CHEMBL1961873.
